target: Full-length (FL)-PRMT5-MEP50 enzyme complex (Homo sapiens, UniProt O14744); construct: Full-length (FL)-PRMT5-MEP50 enzyme complex (recombinant proteins from baculovirus-transfected Sf21 cells: FL-PRMT5; MW=73837 kDa and FL-MEP50; MW=38614); made in house; host or cells: baculovirus-transfected Sf21 cells; assay: PRMT5-MEP50 Enzyme Methylation Assay (Version A); format: biochemical; conditions: single EC50 = 4 parameter single site sigmoidal fit; EC50 1 = first value of 7 parameter biphasic fit; read-out: Enzyme Methylation Assay Version A (EC50 or EC50 1)
Sequence (O14744 whole entry): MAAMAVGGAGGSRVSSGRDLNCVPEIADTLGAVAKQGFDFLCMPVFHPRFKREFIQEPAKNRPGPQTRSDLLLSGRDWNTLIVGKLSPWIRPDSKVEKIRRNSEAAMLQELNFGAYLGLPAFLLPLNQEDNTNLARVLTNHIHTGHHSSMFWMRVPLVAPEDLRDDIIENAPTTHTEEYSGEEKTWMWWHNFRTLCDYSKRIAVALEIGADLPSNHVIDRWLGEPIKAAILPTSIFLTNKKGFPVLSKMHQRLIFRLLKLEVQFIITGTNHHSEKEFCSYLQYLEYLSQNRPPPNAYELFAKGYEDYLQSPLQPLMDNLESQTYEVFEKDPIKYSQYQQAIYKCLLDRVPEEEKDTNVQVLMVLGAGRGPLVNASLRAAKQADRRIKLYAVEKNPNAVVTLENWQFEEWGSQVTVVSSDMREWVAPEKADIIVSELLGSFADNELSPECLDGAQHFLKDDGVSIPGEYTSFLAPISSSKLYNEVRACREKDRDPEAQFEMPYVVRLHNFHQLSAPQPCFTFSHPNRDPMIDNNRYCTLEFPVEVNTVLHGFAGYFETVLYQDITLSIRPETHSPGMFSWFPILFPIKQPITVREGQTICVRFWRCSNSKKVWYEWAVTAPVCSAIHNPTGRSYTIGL
Sequence (Q9BQA1 whole entry partner): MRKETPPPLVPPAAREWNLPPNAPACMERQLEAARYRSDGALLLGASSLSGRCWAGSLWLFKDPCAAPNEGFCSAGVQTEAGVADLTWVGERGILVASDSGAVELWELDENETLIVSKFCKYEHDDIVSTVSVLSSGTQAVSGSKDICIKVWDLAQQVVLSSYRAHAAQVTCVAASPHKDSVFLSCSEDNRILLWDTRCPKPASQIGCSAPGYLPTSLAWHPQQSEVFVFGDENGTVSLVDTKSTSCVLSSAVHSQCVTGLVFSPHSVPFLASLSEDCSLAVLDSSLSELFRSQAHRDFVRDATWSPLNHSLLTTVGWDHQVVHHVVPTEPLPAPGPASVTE
pEC50: −log10 of the molar value.
Reported metric: pEC50

Compound | Reported metric | Value measured
COCc1nc(C)cn2cc(C(=O)N3CC[C@]4(Cc5ccccc5CN4)[C@H](O)C3)nc12 [Example 250] | pEC50 | 6.21
CO[C@H](C)c1cc(N(C)CCn2ccnc2C)cn2cc(C(=O)N3CC[C@]4(Cc5ccccc5CN4)[C@H](O)C3)nc12 [Example 233] | pEC50 | 8.43
O=C(c1ccnc(-n2cnnn2)c1)N1CC[C@]2(Cc3ccccc3CN2)[C@H](O)C1 [Example 187] | pEC50 | 7.12
O=C(c1cn2cc(Br)cc(CO)c2n1)N1CC[C@]2(Cc3ccccc3CN2)[C@H](O)C1 [Example 6] | pEC50 | 9.15
O=C(c1cn2ncnc2cn1)N1CC[C@]2(Cc3ccccc3CN2)[C@H](O)C1 [Example 194] | pEC50 | 6.32
COC(C)c1cc(C)c2nc(C(=O)N3CC[C@]4(Cc5ccccc5CN4)[C@H](O)C3)cn2c1 (single isomer, unassigned) [Example 122] | pEC50 | 9.52
CN1CC(C2CC2)Cn2cc(C(=O)N3CC[C@]4(Cc5ccccc5CN4)[C@H](O)C3)nc21 (single isomer, unassigned) [Example 142] | pEC50 | 7.53
